The measured values listed here are drawn from paper PMC2756588.

Target: T1, Fus1, P11710
T1 sequence (P11710 432-512, looked up): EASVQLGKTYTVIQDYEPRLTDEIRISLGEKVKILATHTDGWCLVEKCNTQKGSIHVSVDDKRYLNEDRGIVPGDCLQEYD
Test: SPOT array
Settings: median of control spots 1200
OBSERVABLE: SPOT intensity

Dear colleague, I am looking for the recorded SPOT intensity of the following binder: RRASLFPRDPKRLRP 25

Dear colleague, I am looking for the recorded SPOT intensity of the following binder: PVLPPPRSPNRPTLS 0

Dear colleague, I am looking for the recorded SPOT intensity of the following binder: RKNRAPPQRPRFNRD 26

Dear colleague, I am looking for the recorded SPOT intensity of the following binder: IPSRPAPKPPSSASA 1

Dear colleague, I am looking for the recorded SPOT intensity of the following binder: QQNRPLPQLPNRNNR 2

Dear colleague, I am looking for the recorded SPOT intensity of the following binder: GQYRRTIVIPRRFFT 48

Dear colleague, I am looking for the recorded SPOT intensity of the following binder: IRMPSNPALPKKLLN 0
